Provenance of the data: patent US20210047399A1

Please respond with reported pEC50 for every item in the list.
Target: T1, human CD47 extracellular domain (CD47(ECD)) (human, UniProt Q08722 19-139)
T1 construct: extracellular domain; Bought protein; also called human CD47(ECD); immobilized CD47
T1 sequence (Q08722 19-139 limits assumed): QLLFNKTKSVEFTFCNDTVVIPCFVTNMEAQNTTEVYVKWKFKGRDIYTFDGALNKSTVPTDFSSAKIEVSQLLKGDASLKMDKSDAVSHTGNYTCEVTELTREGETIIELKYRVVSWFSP
Experiment: ELISA, human CD47(ECD) coated on plate
The scale used: pEC50 is minus the common logarithm of the concentration in molar units.

Record request: pEC50 value, item humanized anti-CD47 mAb KH3L4 (antibody, V domains shown) VH: EVRLSQSGGQMKKPGESMRLSCRASGYTFTSYWMHWVRQAPGRRLEWIGNIDPSDSETHYARKFQGRATLTVDKYSDTAFLELRSLTSDDTAVYYCAGTDLAYWGRGAPVTVSS VL: EIVMTQSPATLSLSPGETAIISCHASQNINVWLSWYQQRPGQAPRLLIYKASNLHTGIPDRFSGSGWGTDFNLSISNLESGDFGVYYCQQGQSYPWTFGQGTKVEIK
10.10

Record request: pEC50 value, item humanized anti-CD47 mAb KH1L2 (antibody, V domains shown) VH: QVQLVQSGAEVKKPGSSVKVSCKASGYTFTSYWMHWVRQAPGQGLEWIGNIDPSDSETHYAQKFQGRATLTVDKSTSTAYMELSSLRSEDTAVYYCAGTDLAYWGQGTLVTVSS VL: EIVLTQSPGTLSLSPGERATLSCHASQNINVWLSWYQQKPGQAPRLLIYKASNLHTGIPDRFSGSGSGTDFTLTISRLEPEDFAVYYCQQGQSYPFTFGQGTKVEIK
9.19

Record request: pEC50 value, item humanized anti-CD47 mAb KH3L2 (antibody, V domains shown) VH: EVRLSQSGGQMKKPGESMRLSCRASGYTFTSYWMHWVRQAPGRRLEWIGNIDPSDSETHYARKFQGRATLTVDKYSDTAFLELRSLTSDDTAVYYCAGTDLAYWGRGAPVTVSS VL: EIVLTQSPGTLSLSPGERATLSCHASQNINVWLSWYQQKPGQAPRLLIYKASNLHTGIPDRFSGSGSGTDFTLTISRLEPEDFAVYYCQQGQSYPFTFGQGTKVEIK
10.10
